Plant response rating, Barnyardgrass listing for selected compounds.
System: barnyardgrass (Echinochloa crus-galli)
Assay: Test A preemergence, barnyardgrass
Type: in vivo
Settings: 31 g ai/ha, 0 to 100 scale

Known Plant response rating, Barnyardgrass results, listed for orientation:
SMILES CODE: Cn1nc(Cl)c(O)c(-c2c3ccccc3cc3ccccc23)c1=O
REPORTED: 0

SMILES CODE: Cn1nc(Cl)c(O)c(-c2c3ccccc3c(Br)c3ccccc23)c1=O
REPORTED: 0

SMILES CODE: CC(=O)Oc1c(Cl)nn(C)c(=O)c1-c1c2ccccc2cc2ccccc12
REPORTED: 0

SMILES CODE: Cc1nn(C)c(=O)c(-c2c3ccccc3cc3ccccc23)c1O
REPORTED: 0

SMILES CODE: C1COCCN1.Cn1nc(Cl)c(O)c(-c2c3ccccc3cc3ccccc23)c1=O
REPORTED: 0

Retrieve Plant response rating, Barnyardgrass measured for Cc1c2ccccc2c(-c2c(O)c(Cl)nn(C)c2=O)c2ccccc12 and print it.
0

Retrieve Plant response rating, Barnyardgrass measured for Cn1nc(Cl)c(O)c(-c2c3ccccc3c(Cl)c3ccccc23)c1=O and print it.
0

###

Tested on: barnyardgrass (Echinochloa crus-galli)
Assay: Test A postemergence, barnyardgrass
Assay type: in vivo
Details: 31 g ai/ha, 0 to 100 scale
Plant response rating, Barnyardgrass listing for selected molecules.
Please state the value as a number alone, without comment.

Known Plant response rating, Barnyardgrass results, listed for orientation:
MOLECULE: Cn1nc(Cl)c(O)c(-c2c3ccccc3c(Br)c3ccccc23)c1=O [Compound 3]
READOUT TYPE: Plant response rating, Barnyardgrass
REPORTED: 20
--
MOLECULE: Cn1nc(Cl)c(O)c(-c2c3ccccc3cc3ccccc23)c1=O [Compound 1]
READOUT TYPE: Plant response rating, Barnyardgrass
REPORTED: 0
--
MOLECULE: Cc1nn(C)c(=O)c(-c2c3ccccc3cc3ccccc23)c1O [Compound 8]
READOUT TYPE: Plant response rating, Barnyardgrass
REPORTED: 10

Retrieve Plant response rating, Barnyardgrass measured for Cn1nc(Cl)c(O)c(-c2c3ccccc3c(Cl)c3ccccc23)c1=O [Compound 2] and print it.
0

Retrieve Plant response rating, Barnyardgrass measured for CC(=O)Oc1c(Cl)nn(C)c(=O)c1-c1c2ccccc2cc2ccccc12 [Compound 6] and print it.
0

Retrieve Plant response rating, Barnyardgrass measured for C1COCCN1.Cn1nc(Cl)c(O)c(-c2c3ccccc3cc3ccccc23)c1=O [Compound 7] and print it.
0

Retrieve Plant response rating, Barnyardgrass measured for Cc1c2ccccc2c(-c2c(O)c(Cl)nn(C)c2=O)c2ccccc12 [Compound 5] and print it.
0

###

Plant response rating, Ragweed listing for selected compounds.
Test system: ragweed (common ragweed, Ambrosia elation)
Assay: Test A postemergence, ragweed
Assay type: in vivo
Conditions: 125 g ai/ha, 0 to 100 scale
Please state the value as a number alone, without comment.

Known Plant response rating, Ragweed results, listed for orientation:
SMILES CODE: CC(=O)Oc1c(Cl)nn(C)c(=O)c1-c1c2ccccc2cc2ccccc12
SYSTEM: ragweed (common ragweed, Ambrosia elation)
Plant response rating, Ragweed: 90
//
SMILES CODE: Cc1nn(C)c(=O)c(-c2c3ccccc3cc3ccccc23)c1O
SYSTEM: ragweed (common ragweed, Ambrosia elation)
Plant response rating, Ragweed: 90
//
SMILES CODE: C1COCCN1.Cn1nc(Cl)c(O)c(-c2c3ccccc3cc3ccccc23)c1=O
SYSTEM: ragweed (common ragweed, Ambrosia elation)
Plant response rating, Ragweed: 100
//
SMILES CODE: Cn1nc(Cl)c(O)c(-c2c3ccccc3c(Br)c3ccccc23)c1=O
SYSTEM: ragweed (common ragweed, Ambrosia elation)
Plant response rating, Ragweed: 90
//
SMILES CODE: Cc1c2ccccc2c(-c2c(O)c(Cl)nn(C)c2=O)c2ccccc12
SYSTEM: ragweed (common ragweed, Ambrosia elation)
Plant response rating, Ragweed: 20

Fill in: Plant response rating, Ragweed on ragweed (common ragweed, Ambrosia elation), entry Cn1nc(Cl)c(O)c(-c2c3ccccc3cc3ccccc23)c1=O
90

Fill in: Plant response rating, Ragweed on ragweed (common ragweed, Ambrosia elation), entry Cn1nc(Cl)c(O)c(-c2c3ccccc3c(Cl)c3ccccc23)c1=O
90

Attribution: patent US11292770B2
